Origin of the recorded values: patent US20250221988A1

Consider the following compounds; for each one, report its pIC50.
# Tested on: MV4;11 cells
# protocol-details: Cell viability assay (CellTiter-Glo) in MV4;11 cells
# Type: cell-based
# particulars: Homo sapiens, MV4-11, 72 h, MV4;11 cells, compound alone, three days; read-out: MV4; 11 IC50
pIC50: −log10 of the molar value.

Consider the worked cases shown below.
Which pIC50 is reported for this compound? Nc1cnc2c(c1)c(C1CC1)nn2[C@H]1C[C@H](CNc2ccc3c(c2)C(=O)N(C2CCC(=O)NC2=O)C3=O)C1 (stereo partly drawn) [GS-756]
< 6.00

So what does the record say about pIC50 for O=C1CCC(N2C(=O)c3ccc(NC[C@H]4C[C@H](n5cc(C6CCCC(O)C6)c(C6CC6)n5)C4)cc3C2=O)C(=O)N1 (stereo partly drawn) [GS-703] ?
7.00 to 8.00

Return reported pIC50; argument: N[C@H]1C[C@H](n2cc3cnc(-c4cn([C@H]5C[C@H](CNc6ccc7c(c6)C(=O)N(C6CCC(=O)NC6=O)C7=O)C5)nc4C4CC4)cc3n2)C1 (stereo partly drawn) [GS-786]
> 8.00

Please give the measured pIC50 for this compound: Cc1cccc(-c2nn([C@H]3C[C@H](CNc4ccc5c(c4)C(=O)N(C4CCC(=O)NC4=O)C5=O)C3)cc2C2CC2)n1 (stereo partly drawn) [GS-713]
7.00 to 8.00

What does the record list as pIC50 for O=C1CCC(N2C(=O)c3ccc(NC[C@H]4C[C@H](n5cc(-c6cc7c(cn6)cnn7[C@H]6CC[C@@H](O)CC6)c(C6CC6)n5)C4)cc3C2=O)C(=O)N1 (stereo partly drawn) [GS-782] ?
> 8.00

Others:
Name the recorded pIC50 for Cc1nc(-c2cn([C@H]3C[C@H](CNc4ccc5c(c4)CN(C4CCC(=O)NC4=O)C5=O)C3)nc2C(F)F)ccc1F (stereo partly drawn) [GS-677] .
> 8.00

###

I'd appreciate it if you could supply IC50 values for the items below.
# System: MOLM-13 cells
# protocol-details: Cell viability assay (CellTiter-Glo) in MOLM-13 cells
# Type: cell-based
# particulars: MOLM-13 cells, with gilteritinib, three days; read-out: MOLM-13 IC50 (nM) + 10 nM Gil

Solved entries (count: 5):
Requested field: IC50. Item: Cn1ccc2ccc(-c3cn([C@H]4C[C@H](CNc5ccc6c(c5)C(=O)N(C5CCC(=O)NC5=O)C6=O)C4)nc3C3CC3)nc21 (stereo partly drawn)
< 10 nM

IC50 lookup needed for Cn1cnc2cnc(-c3cn([C@H]4C[C@H](CNc5ccc6c(c5)C(=O)N(C5CCC(=O)NC5=O)C6=O)C4)nc3C3CC3)cc21 (stereo partly drawn) , thanks.
100 to 1000 nM

Which value of IC50 has been reported for Cn1ncc2nc(-c3cn([C@H]4C[C@H](CNc5ccc6c(c5)C(=O)N(C5CCC(=O)NC5=O)C6=O)C4)nc3C3CC3)ccc21 (stereo partly drawn) in the records?
10 to 100 nM

Which measured IC50 value corresponds to O=C1CCC(N2C(=O)c3ccc(NC[C@H]4C[C@H](n5cc(-c6cccc(N7CC(O)C7)n6)c(C6CC6)n5)C4)cc3C2=O)C(=O)N1 (stereo partly drawn) ?
10 to 100 nM

I have this compound here, N[C@H]1C[C@H](n2cc3cnc(-c4cn([C@H]5C[C@H](CNc6ccc7c(c6)C(=O)N(C6CCC(=O)NC6=O)C7=O)C5)nc4C4CC4)cc3n2)C1 (stereo partly drawn) , and I need its recorded IC50.
< 10 nM

// next item, IC50 requested
Need IC50, item CN1CC(c2ccc3nc(-c4cn([C@H]5C[C@H](CNc6ccc7c(c6)C(=O)N(C6CCC(=O)NC6=O)C7=O)C5)nc4C4CC4)cnc3c2)C1 (stereo partly drawn)
< 10 nM
